src = patent US4803266A

Test system: blood platelet aggregation
Assay: Blood platelet aggregation inhibition in vitro in rabbit PRP, collagen induced
Assay type: cell-based, male, New Zealand strain house rabbit
Conditions: Oryctolagus cuniculus, collagen final concentration 5 μg/ml, 37° C., 3 minutes preincubation, 50% inhibition of maximum aggregation rate
Experimental: Citrated blood (one volume of 3.2% sodium citrate; 9 volumes of blood) was collected from carotid artery of male, New Zealand strain house rabbit, centrifuged at 150 g for 15 minutes to give platelet rich plasma (PRP) as a supernatant, and the remaining blood was centrifuged at 1500 g for 10 minutes to give platelet poor plasma (PPP) as a supernatant. The platelet count of PRP was adjusted to 50-60×10^4 /μl by dilution of PPP. […]
property.label: pIC50
By convention, pIC50 is the negative base-10 log of a molar concentration.

In the examples that follow, each entry is paired with its recorded pIC50.
{"compound": "O=C(/C=C1/C(=O)N(Cc2ccc(F)cc2)C1c1ccccc1)c1ccc([N+](=O)[O-])cc1 (centres unmarked)", "pIC50": 5.06}
{"compound": "O=C(/C=C1/C(=O)N(Cc2ccccc2Cl)C1c1ccccc1)c1ccc([N+](=O)[O-])cc1 (centres unmarked)", "pIC50": 5.19}

q: Observed pIC50 on blood platelet aggregation for O=C(/C=C1/C(=O)N(Cc2ccccc2C(F)(F)F)C1c1ccccc1)c1ccc([N+](=O)[O-])cc1 (centres unmarked) , please.
a: 5.60

q: Observed pIC50 on blood platelet aggregation for O=C(/C=C1/C(=O)N(c2ccccc2)C1c1ccccc1)c1ccc(F)cc1 (centres unmarked) , please.
a: 4.87

q: Observed pIC50 on blood platelet aggregation for O=C(/C=C1/C(=O)N(c2ccccc2)C1c1ccc(F)cc1)c1ccc([N+](=O)[O-])cc1 (centres unmarked) , please.
a: 5.54

q: Observed pIC50 on blood platelet aggregation for COc1ccc(C(=O)/C=C2/C(=O)N(c3ccccc3)C2c2ccccc2)cc1 (centres unmarked) , please.
a: 4.74

q: Observed pIC50 on blood platelet aggregation for O=C(/C=C1/C(=O)N(c2cccc(C(F)(F)F)c2)C1c1ccccc1)c1ccc([N+](=O)[O-])cc1 (centres unmarked) , please.
a: 5.28

q: Observed pIC50 on blood platelet aggregation for O=C(/C=C1/C(=O)N(c2ccccc2)C1c1ccccc1)c1ccc([N+](=O)[O-])cc1 (centres unmarked) , please.
a: 5.33
